Listing: TGI of selected compounds
tested on: MDA-MB-468 breast; test: NCI tumour cell line growth inhibition, 48 h
Could you give the number and then its unit, please?

// worked examples, TGI included
{"compound": "COC(=O)Nc1nc2ccc(C3(c4ccc(F)cc4)OCCO3)cc2[nH]1", "TGI": "1.19 µM"}
{"compound": "Nc1nc(Nc2cccnc2)sc1C(=O)c1ccccc1F", "TGI": "4.04 µM"}
{"compound": "CCCC(CCC)NCC(O)c1cc(-c2ccc(C(F)(F)F)cc2)nc(C(F)(F)F)c1 (stereo unspecified)", "TGI": "2.98 µM"}
{"compound": "Cc1cc2ncnn2cc1Nc1ncc2c(n1)n(C1CCOCC1)c(=O)n2C", "TGI": "44.8 µM"}
{"compound": "CC1=CC(=O)C=CC1=O", "TGI": "3.21 µM"}

Next compound, TGI to be filled in.
Recorded TGI for NC(=O)c1cc(Cl)ccc1NC(=O)/C=C/c1ccccc1 , please?
11.5 µM
